target: T. gondii tachyzoites (type II ME49-FLuc); assay: Luciferase-based tachyzoite growth assay; format: cell-based, Toxoplasma gondii; set-up: unit: µM; conditions: Fig 1A rank order, T. gondii growth
Please respond with Criterion met when measured EC50 log inhib vs normalized response is strictly beneath 3, and with Criterion not met in all other cases.

INSERT INTO results (mol, target_under_test, label_class) VALUES
  ('COc1ccc(NC(=O)N2CCCCN3[C@H](CO)[C@H](c4ccc(C#Cc5ccccc5C#N)cc4)[C@@H]3C2)cc1', 'T. gondii tachyzoites (type II ME49-FLuc)', 'Criterion met'),
  ('COc1ccc(NC(=O)N2CCCCN3[C@H](CO)[C@H](c4ccc(C#Cc5ccccc5)cc4)[C@]3(CO)C2)cc1', 'T. gondii tachyzoites (type II ME49-FLuc)', 'Criterion met'),
  ('COc1ccc(NC(=O)N2CCCCN3[C@H](C2)[C@H](c2ccc(C#Cc4ccccc4)cc2)[C@@H]3CO)cc1', 'T. gondii tachyzoites (type II ME49-FLuc)', 'Criterion not met');

Input line: Lab log: compare recorded EC50 log inhib vs normalized response with 3; is it strictly lower for OC[C@@H]1[C@H](c2ccc(C#Cc3ccccc3)cc2)[C@@H]2CN(c3nc4ccccc4s3)CCCCN12 ?
Output line: Criterion not met

Input line: Lab log: compare recorded EC50 log inhib vs normalized response with 3; is it strictly lower for COc1ccc(NC(=O)N2CCCCN3[C@H](C2)[C@@H](c2ccc(C#Cc4ccccc4)cc2)[C@@H]3CO)cc1 ?
Output line: Criterion not met

Input line: Lab log: compare recorded EC50 log inhib vs normalized response with 3; is it strictly lower for COc1ccc(NC(=O)N2CCCCN3[C@@H](CO)[C@@H](c4ccc(C#Cc5ccccc5)cc4)[C@@H]3C2)cc1 ?
Output line: Criterion met

* * *

Biological target: TgPheRS[L497I] (Toxoplasma gondii, UniProt A0A125YPN6, L497I)
Sequence (A0A125YPN6 1-525 L497I): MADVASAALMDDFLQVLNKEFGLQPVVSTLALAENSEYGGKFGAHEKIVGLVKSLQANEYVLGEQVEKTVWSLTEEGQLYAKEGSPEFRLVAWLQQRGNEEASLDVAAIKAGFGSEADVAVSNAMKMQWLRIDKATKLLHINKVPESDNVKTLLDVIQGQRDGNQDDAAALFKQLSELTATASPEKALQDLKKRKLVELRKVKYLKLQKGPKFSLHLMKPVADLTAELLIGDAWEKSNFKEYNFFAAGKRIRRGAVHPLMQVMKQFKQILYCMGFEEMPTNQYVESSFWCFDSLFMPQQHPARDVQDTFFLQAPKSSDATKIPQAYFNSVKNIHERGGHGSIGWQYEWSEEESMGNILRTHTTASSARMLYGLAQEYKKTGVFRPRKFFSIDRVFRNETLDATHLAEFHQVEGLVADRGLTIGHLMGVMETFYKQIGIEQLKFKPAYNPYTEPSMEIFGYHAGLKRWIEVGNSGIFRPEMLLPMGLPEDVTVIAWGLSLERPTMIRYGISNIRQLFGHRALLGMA
Sequence (S8EZ50 1-675 partner): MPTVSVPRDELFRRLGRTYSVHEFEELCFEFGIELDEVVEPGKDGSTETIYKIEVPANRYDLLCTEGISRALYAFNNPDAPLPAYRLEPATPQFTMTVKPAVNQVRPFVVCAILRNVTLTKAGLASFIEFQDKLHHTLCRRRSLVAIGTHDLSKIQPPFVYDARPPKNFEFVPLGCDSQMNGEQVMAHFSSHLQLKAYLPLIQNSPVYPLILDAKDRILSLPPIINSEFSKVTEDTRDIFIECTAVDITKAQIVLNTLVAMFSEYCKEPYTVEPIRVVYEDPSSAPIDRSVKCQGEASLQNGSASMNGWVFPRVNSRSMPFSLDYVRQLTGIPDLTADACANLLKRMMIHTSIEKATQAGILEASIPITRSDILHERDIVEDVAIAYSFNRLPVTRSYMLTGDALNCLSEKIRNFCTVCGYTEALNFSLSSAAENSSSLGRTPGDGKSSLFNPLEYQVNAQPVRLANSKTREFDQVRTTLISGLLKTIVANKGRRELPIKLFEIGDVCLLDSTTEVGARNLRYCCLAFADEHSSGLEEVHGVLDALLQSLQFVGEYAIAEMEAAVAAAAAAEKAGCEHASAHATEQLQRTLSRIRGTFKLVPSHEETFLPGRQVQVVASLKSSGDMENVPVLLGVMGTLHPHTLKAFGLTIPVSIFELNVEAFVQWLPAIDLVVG
Assay: Enzyme assay, TgPheRS L497I
Details: Table S4, L497I; read-out: IC50 (enzyme inhibition)
readout.name: pIC50
Field pIC50 (float): negative decimal logarithm of the concentration in molar.

Query COc1ccc(NC(=O)N2CCCCN3[C@H](CN(C)C)[C@H](c4ccc(C#Cc5ccccc5)cc4)[C@@H]3C2)cc1 yields pIC50 of 5.88

Ref: paper PMC8786932
